Cited source: patent US20250049926A1

assay-method-text: Solubility measurement of saturated solutions by HPLC at room temperature (0 h and 24 h)
Format: physicochemical
experimental-parameters: buffered water with excipient (saturated solution), pH 4, aqueous with cosolvent or surfactant or cyclodextrin, thermodynamic from solid, CBS 30 mM pH 4.0; PG 100 mg/mL; 0 h; pH exp 4.1
metric-name: solubility at 0 h (µg/mL)
// return numeric value only (unit: µg/mL, not printed)

Lookup result for COc1cc(N2CCNCC2)ccc1Nc1ncc2c(n1)-n1ccc(C(=O)Nc3c(C)cccc3C)c1CC2 [compound of formula (I)] ; measured solubility at 0 h: 280

---

assay-method-text: Solubility measurement of saturated solutions by HPLC at room temperature (0 h and 24 h)
Format: physicochemical
experimental-parameters: buffered water with excipients, pH 4, aqueous with cosolvent or surfactant or cyclodextrin, thermodynamic from solid, CBS 30 mM pH 4.0, NaCl 3 mg/mL; SBE-beta-CD 40 mg/mL + Na CMC 5 mg/mL; 0 h; pH exp 4.1
metric-name: solubility at 0 h
The reply must contain the numeric value and, after it, the unit.

Kindly note the recorded solubility at 0 h for COc1cc(N2CCNCC2)ccc1Nc1ncc2c(n1)-n1ccc(C(=O)Nc3c(C)cccc3C)c1CC2 [compound of formula (I)] , which is 1710 µg/mL
